Tested on: CEM cells HIV-1 protection, formazan growth assay
run.description: NCI AIDS Antiviral Assay
condition.description: measured here: growth of uninfected CEM cells
# IC50 values compiled below

Give recorded IC50. O=C(Nc1cc2cc([N+](=O)[O-])ccc2oc1=O)c1cccs1 > 61.7 µM

// Input: CCOC(=O)C1=C(C)C2C=C(c3cccs3)CC(c3ccc(Cl)cc3)=C2OC1=O (centres undefined) . Output its IC50 only. 91.2 µM

For N#C/C(=C\c1cccs1)c1ccccc1 , write its IC50. 117 µM

Kindly indicate its recorded IC50. Item: O=c1c2ccccc2nc(-c2ccccc2)n1NC(=S)Nc1cccc(Cl)c1 > 33.1 µM

Indicate its recorded IC50; the compound in question is CC1=C(CCc2ccoc2)[C@@]2(C)CCCC(C)(C)C2C(=O)[C@@H]1O[C@H]1C(=O)C2C(C)(C)CCC[C@]2(C)[C@](O)(CCc2ccoc2)C1C (some centres undefined) > 4.27 µM

Next:
Determine from records and report IC50 for CCCCCCCCCCCc1c(O)c(=O)c2c(oc3c(=O)c(CCCCCCCCCCC)c(O)c(=O)c3n2-c2ccc(N(C)C)cc2)c1=O > 2.04 µM

In one line, give reported IC50 of the entry CCOC(=O)/C(C#N)=C/c1ccc(N(C)C)cc1 . > 77.6 µM

Retrieve IC50 measured for Cc1cc(C)c(C(=O)/C(=C/c2ccccc2)c2ccccc2)c(C)c1 and print it. > 15.8 µM

Identify measured IC50 associated with CN(C)/C(N)=N/C(N)=Nc1cccc(Cl)c1 83.2 µM

---

System: CEM cells HIV-1 protection, formazan growth assay
run.description: NCI AIDS Antiviral Assay;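 active = compounds giving half or more protection of infected cells from virus-caused growth loss, again on retest; inactive = the rest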
Use one of these outcomes when replying: 1 (active), 0 (inactive)

Look up the recorded call for CCc1c(Cc2cc(C)cc(C)c2)n(COCCSc2ccccc2)c(=O)[nH]c1=O in this test. 1

Continuing:
Any idea what this test logged for N#CCCN(CCC#N)c1ccc(/C=C2\N=C(COc3ccc(Cl)cc3Cl)OC2=O)cc1 ? 0

---

compounds and their reported EC50
System: CEM cells HIV-1 protection, formazan growth assay
run.description: NCI AIDS Antiviral Assay

# return recorded EC50 for input COc1ccc(P2(=S)OC(C)(C)C(C)(C)O2)cc1 > 200 µM

Specify reported EC50 for the compound shown: CCOC(=O)C(=O)/C(=C/n1c(=S)[nH]c2ccc([N+](=O)[O-])cc21)C(=O)OCC > 200 µM

Tell me its EC50 given O=c1c2ccccc2nc(-c2ccccc2)n1NC(=S)Nc1cccc(Cl)c1 as the entry. > 33.1 µM

Check the records and state EC50 for CCOC(=O)c1cnc2sc3ccc4ccccc4c3n2c1=O > 27.5 µM

Input CC1(C)CNCC2(C)OCCCOC3(C)CNCC(C)(C)NC(=O)C(C)(CNCC(C)(C)NC3=O)OCCCOC(C)(CNCC(C)(C)NC2=O)C(=O)N1 , output reported EC50. > 200 µM

Return reported EC50. Input compound: O=c1sc(Nc2ccc3ccccc3c2Cl)nc2ccccc12 > 200 µM

Tell us which EC50 value is on record for CCOC(=O)NC(Nc1ccc(F)c(F)c1)(C(=O)OCC)C(F)(F)F (stereo not given) > 200 µM

Tell me EC50 reported for CCCCCCCCCCNc1nc(F)nc(Nc2cc3ccc(OC)cc3oc2=O)n1 > 39.8 µM

Supply reported EC50 belonging to this compound: O=[C]=[Fe+].O=[C]=[Fe].[C-]1=CCC=C1.[CH-]=O.[CH-]=O.c1cc[cH-]c1 > 200 µM

Indicate the recorded EC50 value for this compound: O=c1cc(NNc2cccc(Cl)c2)[nH]c(=O)[nH]1 > 200 µM

Report EC50, nothing else, for this compound: CC1(C)OC(C(C)(C)O)C(C(C)(C)O)O1 (stereo not given) > 200 µM

Return reported EC50. Input compound: O=c1c2ccccc2ncn1COCc1ccccc1 > 200 µM

Could you please provide reported EC50 for Cc1ccc(N2C(=O)C3c4[nH]c5ccc(C)cc5c4C4CCC(C(C)(C)C)CC4C3C2=O)cc1 (stereo not given) ? Thanks! > 200 µM

Give recorded EC50. C=C[C@@H](C)[C@@H](O[Si](C)(C)C(C)(C)C)c1c(O)c2c(c3c(CCC)cc(=O)oc13)OC(C)(C)C=C2 > 200 µM

Identify measured EC50 associated with O=C(O)C1(Cl)C2(Cl)C(Cl)=CC3(Cl)C(Cl)(C(=O)O)C2(Cl)C31Cl (stereo not given) > 200 µM
